measured_target: Gag-Pol polyprotein (Human immunodeficiency virus type 1 group M subtype B (isolate HXB2))
experiment_description: HIV-1 RT RNase H inhibitor potency, dose response, biochemical, probe assessment (AID 652)
condition_label: pH 8; 23 °C
observed_property: log10 of IC50 (log10 of the value in µM)
log10 IC50, µM

Some compounds with known log10 of IC50 results, for comparison:
CC(C)c1ccc(C2CC(=O)N3CN(C)CSC3=C2C#N)cc1 (stereo not given)	1.03
c1ccc(-n2ncc3c2ncn2nc(-c4ccco4)nc32)cc1	0.90
c1ccc2c(c1)OCC(c1nnc3sc(-c4ccc5c(c4)OCO5)nn13)O2 (stereo not given)	0.16
COC(=O)c1ccc2c(c1)N(Cc1nc(-c3ccc(Cl)cc3)oc1C)C(=O)C1CCCN21 (stereo not given)	0.46
Cc1ccc(/C=C/C2=Cc3c(sc(NC(=O)CSc4nnc(N)[nH]4)c3C#N)C(C)(C)C2)o1	-0.05

Please go through the list and note log10 of IC50 for each compound.
1. CN(C)c1ccc2c(c1)N=C(c1ccco1)OP2(=S)N1CCOCC1 (stereo not given)
2. CCC1CC2(C)NC(=O)c3c(sc4c3CC(C)(C)OC4)N2C1=O (stereo not given)
3. COc1ccc(S(=O)(=O)Nc2ccc(O)c3ccccc23)cc1
4. CCOC(=O)c1c(C)[nH]c(C(=O)CSc2nc3ccccc3o2)c1C

[0.22, 0.46, 0.61, 0.88]

Return log10 of IC50 measured with Gag-Pol polyprotein (Human immunodeficiency virus type 1 group M subtype B (isolate HXB2)) given this compound: c1ccc(-c2ccc(-c3ccccn3)nn2)nc1
1.19

---

measured_target: Gag-Pol polyprotein (Human immunodeficiency virus type 1 group M subtype B (isolate HXB2), UniProt P04585)
experiment_description: HIV-1 RT RNase H inhibitor potency, dose response, biochemical, probe assessment (AID 652)
condition_label: pH 8; 23 °C
Provide the recorded IC50 for the entries that follow.
Give bare numbers, in µM.

Some molecules with known IC50 results, for comparison:
O=C(COc1ccc(Br)cc1)Nc1ccc(-c2nnc(-c3ccco3)o2)cc1	6.33
Fc1ccc(-c2ccc(-c3nn4c(-c5ccco5)nnc4s3)o2)cc1	8.95
CCOC(=O)C1=C(C)N=c2s/c(=C3/C(=O)Nc4ccccc43)c(=O)n2C1c1ccc2c(c1)OCO2 (stereo unspecified)	1.07
CCCCCC#CCC#CCC#CCC#CCCCC(=O)O	0.794

Please go through the list and note IC50 for each molecule.
1. COc1ccc(CC(=O)Nc2ccc(-c3noc(-c4cccc(OC)c4)n3)cc2)cc1
2. CCOC(=O)c1c(NC(=O)c2cc(C3CC3)on2)sc2c1CCCC2
3. Cc1cccc(-n2c(N)c(C(=O)N3CCN(C)CC3)sc2=S)c1
4. Cc1ccc(-c2cc(C(=O)NC3=NCCS3)c3cc(Br)ccc3n2)o1
5. CCOC(=O)c1c(C2COc3ccccc3O2)csc1NC(=O)c1ccco1 (stereo unspecified)
6. CCOC(=O)N(c1ccccc1)P1(=S)OCCO1

1: 3.07; 2: 1.7; 3: 45.1; 4: 0.175; 5: 0.654; 6: 3.25

---

Provide the recorded pIC50 for the entries that follow.
measured_target: Gag-Pol polyprotein (Human immunodeficiency virus type 1 group M subtype B (isolate HXB2))
experiment_description: HIV-1 RT RNase H inhibitor potency, dose response, biochemical, probe assessment (AID 652)
condition_label: pH 8; 23 °C
One number for each entry, as −log10 of the molar value.

Some compounds with known pIC50 results, for comparison:
c1ccc(N2CCN(c3nc4cc5c(cc4s3)OCO5)CC2)cc1	5.49
Cc1oc(-c2ccc(Cl)cc2)cc1-c1nn2c(-c3ccoc3C)nnc2s1	5.93
c1ccc(Cc2nn3c(COc4ccccc4)nnc3s2)cc1	5.87
CCOc1cc(C2c3c(oc4cc(C)c(Cl)cc4c3=O)C(=O)N2Cc2ccco2)ccc1O (stereo unspecified)	5.16
O=S(=O)(c1ccc(S(=O)(=O)N2CCN(C/C=C/c3ccccc3)CC2)cc1)N1CCCC1	4.91

Please go through the list and note pIC50 for each compound.
1. C=CCOc1ccc(CC2C(=O)N(C)C(=O)N(C)C2=O)cc1
2. Cc1cc(-c2nn3c(-c4ccccc4)nnc3s2)c2ccccc2n1
3. Cc1ccc(Cn2c(SCC(C)C)nc3c2c(=O)[nH]c(=O)n3C)cc1
4. Cc1ccnc(-n2sc3ccccc3c2=O)n1
5. CC(=O)C(C(C)=O)c1c(Cl)c(O)c(O)c2c(C(=O)c3ccccc3)coc12

5.58
5.59
5.77
5.93
6.42
